SYSTEM NAME: T1, 2Ig-B7H3 without Fc fusion (human, UniProt Q5ZPR3-2 29-245, limits assumed)
T1 construct: also called 2IgB7H3 (R&D)
T1 sequence (looked up): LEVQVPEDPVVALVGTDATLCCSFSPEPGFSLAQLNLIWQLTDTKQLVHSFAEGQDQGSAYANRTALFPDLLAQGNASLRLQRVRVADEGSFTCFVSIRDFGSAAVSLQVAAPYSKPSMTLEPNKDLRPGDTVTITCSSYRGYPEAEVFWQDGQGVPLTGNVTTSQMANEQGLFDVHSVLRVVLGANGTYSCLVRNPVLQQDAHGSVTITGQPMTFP
MEASUREMENT NOTES: SPR, IgG on 2Ig-B7-H3 without Fc fusion
VALUE TYPE: koff (s⁻¹)
Field format: number, assumed s⁻¹, no unit text.

Please review the entries below; each comes with its answer.
ch8H9 6.1 IgG (ch8H9 + 6 affinity maturation mutations) (antibody, V domains shown) VH: QVQLQQSGAELVKPGASVKLSCKTSGYTFTNYDINWVRQRPGQGLEWIGWIFPGDDSTQYNEKFKGKATLTTDTSSSTAYMQLSRLTSEDSAVYFCARQTTGTWFAYWGQGTLVTVSA VL: DIVMTQSPATLSVTPGDRVTLSCRASQSISDYLYWYQQKSHESPRLLIKYASQSISGIPSRFSGSGSGSDFTLSINSVEPEDVGVYYCQNGHSFPLTFGAGTKLELKR	4.25e-05
hu8H9 H3L3 IgG1 (antibody, V domains shown) VH: QVQLVQSGAEVVKPGASVKLSCKASGYTFTNYDINWVRQRPEQGLEWIGWIFPGDGSTQYNEKFKGKATLTTDTSTSTAYMELSSLRSEDTAVYFCARQTTATWFAYWGQGTLVTVSS VL: EIVMTQSPATLSVSPGERVSLSCRASQSISDYLHWYQQKSHESPRLLIKYASQSISGIPARFSGSGSGSEFTLTINSVEPEDVGVYYCQNGHSFPLTFGQGTKLELKR	0.000607

Consider now this further binder.
query: Recorded koff of hu8H9 3.1 IgG1 (antibody, V domains shown, also called clone 3.1) VH: QVQLVQSGAEVVKPGASVKLSCKTSGYTFTNYDINWVRQRPGQGLEWIGWIFPGDDSTQYNEKFKGKATLTTDTSTSTAYMELSSLRSEDTAVYFCARQTTGTWFAYWGQGTLVTVSS VL: EIVMTQSPATLSVSPGERVTLSCRASQSISDYLYWYQQKSHESPRLLIKYASQSISGIPARFSGSGSGSEFTLTINSVEPEDVGVYYCQNGHSFPLTFGQGTKLELKR , please.
result: 0.000171
